- Assayed system: Histone-lysine N-methyltransferase NSD2 (Homo sapiens, UniProt O96028)
- Sequence (O96028 whole entry): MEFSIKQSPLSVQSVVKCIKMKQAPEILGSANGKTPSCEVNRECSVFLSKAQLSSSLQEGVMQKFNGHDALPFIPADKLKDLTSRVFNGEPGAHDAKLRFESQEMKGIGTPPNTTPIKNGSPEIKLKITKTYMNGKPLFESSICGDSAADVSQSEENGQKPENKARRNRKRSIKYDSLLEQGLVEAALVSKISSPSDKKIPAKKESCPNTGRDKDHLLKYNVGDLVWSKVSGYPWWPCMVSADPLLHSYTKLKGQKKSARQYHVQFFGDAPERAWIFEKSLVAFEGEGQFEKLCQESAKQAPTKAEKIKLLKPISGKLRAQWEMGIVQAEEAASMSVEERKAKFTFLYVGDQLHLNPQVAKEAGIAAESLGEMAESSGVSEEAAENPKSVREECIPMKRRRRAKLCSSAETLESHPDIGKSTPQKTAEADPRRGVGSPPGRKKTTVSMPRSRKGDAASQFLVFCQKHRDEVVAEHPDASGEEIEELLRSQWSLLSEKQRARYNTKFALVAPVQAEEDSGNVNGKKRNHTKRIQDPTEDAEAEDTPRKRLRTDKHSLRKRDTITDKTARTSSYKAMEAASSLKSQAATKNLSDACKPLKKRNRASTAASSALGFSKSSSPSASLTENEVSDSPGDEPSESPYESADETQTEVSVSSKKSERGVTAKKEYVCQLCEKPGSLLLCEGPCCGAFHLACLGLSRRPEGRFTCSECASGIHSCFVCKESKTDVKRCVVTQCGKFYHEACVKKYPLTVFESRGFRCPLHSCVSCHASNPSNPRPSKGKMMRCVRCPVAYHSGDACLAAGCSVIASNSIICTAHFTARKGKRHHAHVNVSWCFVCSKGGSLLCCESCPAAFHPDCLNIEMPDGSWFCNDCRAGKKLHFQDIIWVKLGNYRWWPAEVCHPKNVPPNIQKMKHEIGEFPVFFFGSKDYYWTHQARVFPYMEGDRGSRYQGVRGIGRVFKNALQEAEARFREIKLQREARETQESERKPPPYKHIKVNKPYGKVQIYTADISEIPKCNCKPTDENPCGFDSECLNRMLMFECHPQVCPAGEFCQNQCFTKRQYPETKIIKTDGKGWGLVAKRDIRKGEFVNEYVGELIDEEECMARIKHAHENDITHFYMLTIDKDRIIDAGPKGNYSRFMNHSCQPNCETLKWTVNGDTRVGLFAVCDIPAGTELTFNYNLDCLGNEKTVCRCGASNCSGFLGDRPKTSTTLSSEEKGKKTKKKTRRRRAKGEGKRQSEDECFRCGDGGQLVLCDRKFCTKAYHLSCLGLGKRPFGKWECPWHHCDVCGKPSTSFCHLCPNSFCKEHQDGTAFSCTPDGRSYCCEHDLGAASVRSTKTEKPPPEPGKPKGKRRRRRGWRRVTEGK
- Test name: Inhibition of 15N-labeled NSD2 (953 to 1240 residues) (unknown origin) expressed in Escherichia coli BL21 DE3 using H3K36 as substrate incubated for 60 mins by Alphascreen assay
pIC50: −log10 of the molar value.
Endpoint: pIC50

A = Nc1ncnc2c1ncn2[C@@H]1O[C@H](C[C@@H](N)CC[C@H](N)C(=O)O)[C@@H](O)[C@H]1O [SINEFUNGIN]
B = CC(C)CN[C@@H](CC[C@H](N)C(=O)O)C[C@H]1O[C@@H](n2cnc3c(N)ncnc32)[C@H](O)[C@@H]1O
Input line: Compare the recorded pIC50 of A and B ; state which is larger. Identify your selection by its label.
Output line: B
(B: 5.74, A: 4.34)

Recorded values, source ChEMBL document CHEMBL5385898.
